Assay target: PI3K alpha (Homo sapiens)
Construct: p85(iSH2) fusion partner (see partner chain) (N); His tag (C); Tn5 (Trichoplusia ni) or TiniPro insect cells
Sequence (P42336 with tags, fused parts or gaps limits assumed): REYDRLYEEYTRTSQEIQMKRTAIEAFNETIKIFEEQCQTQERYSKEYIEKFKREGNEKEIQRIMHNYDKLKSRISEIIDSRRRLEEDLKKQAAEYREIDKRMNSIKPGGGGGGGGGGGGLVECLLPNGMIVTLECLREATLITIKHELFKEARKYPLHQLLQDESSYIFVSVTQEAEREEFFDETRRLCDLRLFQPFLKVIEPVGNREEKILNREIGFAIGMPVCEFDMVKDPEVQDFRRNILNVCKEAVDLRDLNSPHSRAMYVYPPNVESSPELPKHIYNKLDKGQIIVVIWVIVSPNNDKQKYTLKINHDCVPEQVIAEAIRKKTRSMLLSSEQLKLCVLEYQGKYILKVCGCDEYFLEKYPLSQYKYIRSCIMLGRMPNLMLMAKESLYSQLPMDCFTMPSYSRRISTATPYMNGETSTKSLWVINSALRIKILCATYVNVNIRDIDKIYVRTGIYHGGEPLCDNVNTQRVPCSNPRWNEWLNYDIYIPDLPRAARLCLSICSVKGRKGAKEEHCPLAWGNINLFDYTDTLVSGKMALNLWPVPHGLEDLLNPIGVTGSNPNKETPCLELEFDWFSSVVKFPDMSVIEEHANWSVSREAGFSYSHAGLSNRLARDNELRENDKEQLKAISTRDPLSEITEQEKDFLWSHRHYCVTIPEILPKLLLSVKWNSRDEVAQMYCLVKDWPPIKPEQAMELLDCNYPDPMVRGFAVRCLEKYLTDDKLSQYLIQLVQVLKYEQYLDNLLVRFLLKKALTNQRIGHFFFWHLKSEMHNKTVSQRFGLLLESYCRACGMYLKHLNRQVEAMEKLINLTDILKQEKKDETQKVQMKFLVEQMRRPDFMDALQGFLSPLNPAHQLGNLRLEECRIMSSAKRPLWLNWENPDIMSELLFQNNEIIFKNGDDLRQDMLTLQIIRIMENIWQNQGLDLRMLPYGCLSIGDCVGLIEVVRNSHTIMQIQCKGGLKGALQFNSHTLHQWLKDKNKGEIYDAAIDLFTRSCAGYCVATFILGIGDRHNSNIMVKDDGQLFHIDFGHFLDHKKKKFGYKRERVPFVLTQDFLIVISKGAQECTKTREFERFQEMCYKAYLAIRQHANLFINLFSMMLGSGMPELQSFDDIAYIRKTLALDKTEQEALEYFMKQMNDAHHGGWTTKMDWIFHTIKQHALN
Experimental details: PI3K alpha kinase assay (Kinase-Glo luminescence)
Endpoint: IC50 (nM)

The following compounds have reported results that may help.
CO[C@H]1CCN(c2ccc(-c3ccc4ncc5c(c4c3)n(-c3cn(C)nc3C)c(=O)n5C)cn2)C1 [Example 213.2] :: 220
CNc1cc(-c2ccc3ncc4c(c3c2)n(-c2c(C)nn(C)c2C)c(=O)n4C)cnc1CO [Example 158.4] :: 72
Cc1nn(C)c(C)c1-n1c(=O)n(C)c2cnc3ccc(-c4ccc(CO)nc4)cc3c21 [Example 16.4] :: 184
Cc1nn(C)cc1-n1c(=O)n(C)c2cnc3ccc(-c4cnc(Cl)c(N)c4)cc3c21 [Example 152.2] :: 17
CCN(C)c1ccc(-c2ccc3ncc4c(c3c2)n(-c2cn(C(C)C)nc2C)c(=O)n4C)cn1 [Example 98.2] :: 118
Cc1c(-n2c(=O)n(C)c3cnc4ccc(-c5ccc(N(C)C)nc5)cc4c32)cnn1C [Example 4.4] :: 45
COCCOc1cncc(-c2ccc3ncc4c(c3c2)n(-c2cn(C)nc2C)c(=O)n4C)c1 [Example 59.1] :: 18
Cc1nn(C)cc1-n1c(=O)n(C)c2cnc3ccc(-c4cnc5c(c4)ncn5C)cc3c21 [Example 74] :: 20
Cc1nn(C)cc1-n1c(=O)n(C)c2cnc3ccc(-c4ccc(-c5ncc[nH]5)cc4)cc3c21 [Example 77] :: 5

I = Cc1nn(C)cc1-n1c(=O)n(C)c2cnc3ccc(-c4cncc(N5CCC5)c4)cc3c21 [Example 179]
II = COc1ccc(-c2ccc3ncc4[nH]c(=O)n(-c5cn(C)nc5C)c4c3c2)cn1 [Example 109]
Field: entry with larger IC50 (options I / II ). Pick one; state its label.
I

====

Assay target: PI3K beta (Homo sapiens)
Construct: for the full-length p110-b subunit are generated and fused by overlapping PCR; p85(iSH2) fusion partner (see partner chain) (N); His tag (C); Tn5 (Trichoplusia ni) or TiniPro insect cells
Sequence (P42338 with tags, fused parts or gaps limits assumed): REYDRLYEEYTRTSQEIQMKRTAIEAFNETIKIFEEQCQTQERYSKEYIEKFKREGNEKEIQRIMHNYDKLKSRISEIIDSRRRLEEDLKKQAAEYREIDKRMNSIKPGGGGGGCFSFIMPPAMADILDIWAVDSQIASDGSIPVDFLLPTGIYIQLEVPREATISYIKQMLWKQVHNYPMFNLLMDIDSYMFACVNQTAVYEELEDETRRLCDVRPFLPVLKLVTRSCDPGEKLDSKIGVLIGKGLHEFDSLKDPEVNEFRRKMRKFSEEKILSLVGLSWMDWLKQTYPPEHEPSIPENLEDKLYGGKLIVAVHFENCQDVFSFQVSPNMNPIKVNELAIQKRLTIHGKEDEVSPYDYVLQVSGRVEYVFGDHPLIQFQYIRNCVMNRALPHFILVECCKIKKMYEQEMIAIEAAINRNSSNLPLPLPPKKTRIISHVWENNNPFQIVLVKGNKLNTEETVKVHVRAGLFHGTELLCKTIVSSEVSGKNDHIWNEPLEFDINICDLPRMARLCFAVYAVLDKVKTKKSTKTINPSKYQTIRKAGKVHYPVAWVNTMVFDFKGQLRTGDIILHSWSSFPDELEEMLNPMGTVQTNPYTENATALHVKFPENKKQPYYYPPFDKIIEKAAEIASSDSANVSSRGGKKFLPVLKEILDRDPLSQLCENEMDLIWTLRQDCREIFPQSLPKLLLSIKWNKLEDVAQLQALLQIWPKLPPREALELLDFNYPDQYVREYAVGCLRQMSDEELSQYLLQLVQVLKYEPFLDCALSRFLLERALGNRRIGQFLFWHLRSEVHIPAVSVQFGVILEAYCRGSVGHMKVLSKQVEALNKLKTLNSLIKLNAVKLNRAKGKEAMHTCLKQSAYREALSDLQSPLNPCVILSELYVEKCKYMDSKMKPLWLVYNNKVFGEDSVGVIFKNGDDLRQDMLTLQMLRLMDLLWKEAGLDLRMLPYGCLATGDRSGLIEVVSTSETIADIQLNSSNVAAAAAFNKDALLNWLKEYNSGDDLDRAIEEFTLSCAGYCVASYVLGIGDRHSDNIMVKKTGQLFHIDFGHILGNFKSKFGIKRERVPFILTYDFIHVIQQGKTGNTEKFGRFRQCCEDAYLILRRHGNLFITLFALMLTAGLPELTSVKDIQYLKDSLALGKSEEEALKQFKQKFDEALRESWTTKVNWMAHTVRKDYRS
Experimental details: PI3K beta kinase assay (Kinase-Glo luminescence)
pIC50: −log10 of the molar value.
Endpoint: pIC50

The following compounds have reported results that may help.
Cc1nn(C)cc1-n1c(=O)n(C)c2cnc3ccc(-c4cccc(O)c4)cc3c21 :: 7.37
CCOc1ccc(-c2ccc3ncc4c(c3c2)n(-c2c(C)nn(C)c2C)c(=O)n4C)cn1 :: 6.40
Cc1nn(C(C)C)cc1-n1c(=O)n(C)c2cnc3ccc(-c4ccc(N)nc4)cc3c21 :: 6.71
COc1ccc(-c2ccc3ncc4c(c3c2)n(-c2cn(CC(=O)N(C)C)nc2C)c(=O)n4C)cn1 :: 6.54

A = CCn1cc(-n2c(=O)n(C)c3cnc4ccc(-c5cnc(NC)c(Cl)c5)cc4c32)c(C)n1
B = CNC(=O)c1cc(-c2ccc3ncc4c(c3c2)n(-c2cn(C(C)C)nc2C)c(=O)n4C)cnc1N
C = CCN(CC)c1cncc(-c2ccc3ncc4c(c3c2)n(-c2cn(C)nc2C)c(=O)n4C)c1
D = COCc1ncc(-c2ccc3ncc4c(c3c2)n(-c2cn(C)nc2C)c(=O)n4C)cc1OC(C)C
Sort entries by pIC50 from minimum to maximum value. To answer, write out the labels according to the requested order.
B, A, C, D
(B: 6.55, A: 7.18, C: 7.39, D: 7.62)

====

Assay target: mTOR (Homo sapiens)
Sequence (P42345 1360-2549 limits assumed): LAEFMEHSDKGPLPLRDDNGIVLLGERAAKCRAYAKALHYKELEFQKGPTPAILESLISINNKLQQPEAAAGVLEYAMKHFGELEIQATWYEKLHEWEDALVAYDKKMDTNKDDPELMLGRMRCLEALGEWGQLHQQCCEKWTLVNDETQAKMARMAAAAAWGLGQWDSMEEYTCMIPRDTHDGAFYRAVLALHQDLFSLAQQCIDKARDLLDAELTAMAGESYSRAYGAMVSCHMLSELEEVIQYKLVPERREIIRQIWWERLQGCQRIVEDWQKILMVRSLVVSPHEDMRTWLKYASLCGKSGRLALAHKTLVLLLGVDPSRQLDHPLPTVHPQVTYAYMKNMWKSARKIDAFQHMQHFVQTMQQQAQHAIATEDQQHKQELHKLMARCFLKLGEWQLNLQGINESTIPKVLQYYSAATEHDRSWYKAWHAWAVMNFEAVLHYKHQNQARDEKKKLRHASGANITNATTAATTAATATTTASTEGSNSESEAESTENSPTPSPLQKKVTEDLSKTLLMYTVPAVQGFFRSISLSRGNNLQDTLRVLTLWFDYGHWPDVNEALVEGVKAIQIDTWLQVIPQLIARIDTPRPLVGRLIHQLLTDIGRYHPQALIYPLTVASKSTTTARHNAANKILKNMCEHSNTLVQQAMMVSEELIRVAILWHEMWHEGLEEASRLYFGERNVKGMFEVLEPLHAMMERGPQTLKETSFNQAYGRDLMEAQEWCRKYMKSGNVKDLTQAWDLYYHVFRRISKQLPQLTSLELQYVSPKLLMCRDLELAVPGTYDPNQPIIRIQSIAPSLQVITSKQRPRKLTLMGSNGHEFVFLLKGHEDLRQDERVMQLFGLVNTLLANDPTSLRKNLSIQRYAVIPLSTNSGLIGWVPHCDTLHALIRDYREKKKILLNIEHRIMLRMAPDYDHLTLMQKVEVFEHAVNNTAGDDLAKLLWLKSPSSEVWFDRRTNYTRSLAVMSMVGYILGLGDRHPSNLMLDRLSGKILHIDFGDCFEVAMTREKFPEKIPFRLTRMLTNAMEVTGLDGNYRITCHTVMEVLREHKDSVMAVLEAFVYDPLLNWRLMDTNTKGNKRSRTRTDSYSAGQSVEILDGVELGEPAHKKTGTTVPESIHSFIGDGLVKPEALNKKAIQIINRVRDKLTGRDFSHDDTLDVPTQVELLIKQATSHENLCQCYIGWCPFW
pIC50: −log10 of the molar value.
Endpoint: pIC50

CNc1ncc(-c2ccc3ncc4c(c3c2)n(-c2c(C)nn(C)c2C)c(=O)n4C)cc1COC :: 6.25

P = CCOc1ncc(-c2ccc3ncc4c(c3c2)n(-c2cn(C)nc2C)c(=O)n4C)cc1N(C)C(C)=O
Q = CCOc1cc(-c2ccc3ncc4c(c3c2)n(-c2cn(C)nc2C)c(=O)n4C)cnc1C
# min-compare on pIC50 between P and Q Pick one; state its label.
P

====

pIC50: −log10 of the molar value.
Let's go through some pIC50 measurements on mTOR (Homo sapiens) together.
Endpoint: pIC50

The following molecules have reported results that may help.
CCOc1ccc(-c2ccc3ncc4[nH]c(=O)n(-c5cn(C)nc5C)c4c3c2)cn1 :: 7.85
CCOc1ccc(-c2ccc3ncc4c(c3c2)n(-c2c(C)nn(CC(=O)N(C)C)c2C)c(=O)n4C)cn1 :: 6.26
Cc1nn(C)cc1-n1c(=O)n(C)c2cnc3ccc(-c4ccc(C(N)=O)cc4)cc3c21 :: 8.30

1 = COc1ccc(-c2ccc3ncc4c(c3n2)n(-c2cn(C)nc2C)c(=O)n4C)cc1OC
2 = Cc1nn(C)cc1-n1c(=O)n(C)c2cnc3ccc(-c4cnc(F)c(N)c4)cc3c21
# min-compare on pIC50 between 1 and 2 Pick one; state its label.
1
(1: 6.87, 2: 7.41)

====

Assay target: PI3K alpha (Homo sapiens)
Construct: p85(iSH2) fusion partner (see partner chain) (N); His tag (C); Tn5 (Trichoplusia ni) or TiniPro insect cells
Experimental details: PI3K alpha kinase assay (Kinase-Glo luminescence)
Endpoint: IC50 (nM)

The following molecules have reported results that may help.
Cc1nn(C)cc1-n1c(=O)n(C)c2cnc3ccc(-c4cc(O)cc(C(F)(F)F)c4)cc3c21 :: 7
CCNC(=O)c1cc(-c2ccc3ncc4c(c3c2)n(-c2cn(C)nc2C)c(=O)n4C)cnc1NC :: 23
Cc1nn(C)cc1-n1c(=O)n(C)c2cnc3ccc(-c4cncc(C5(C#N)CCC5)c4)cc3c21 :: 14
CCn1cc(-n2c(=O)n(C)c3cnc4ccc(-c5ccc(OC)c(OC)c5)nc4c32)c(C)n1 :: 11

1 = Cc1nn(C)cc1-n1c(=O)n(C)c2cnc3ccc(-c4ccc(NCCO)nc4)cc3c21
2 = CNc1ncc(-c2ccc3ncc4c(c3c2)n(-c2cn(C(C)C)nc2C)c(=O)n4C)cc1F
Field: entry with larger IC50 (options 1 / 2 ). Pick one; state its label.
1

====

System: PKB Ser473 phosphorylation in Rat1-myr-HA-p110 alpha cells
Experimental details: Reverse protein array assay, PKB Ser473 phosphorylation in Rat1-myr-p110 alpha cells
Format: cell-based
Condition description: 0.5 h, pAkt Ser473, 30 minutes compound incubation, read-out: p-PKB IC50
pIC50: −log10 of the molar value.
Endpoint: pIC50

CNc1cc(-c2ccc3ncc4c(c3c2)n(-c2cn(C)nc2C)c(=O)n4C)cnc1COC [Example 159] :: 8.15
CCOc1ccc(-c2ccc3ncc4c(c3c2)n(-c2cn(C)nc2C)c(=O)n4C)cc1OC [Example 29.3] :: 8.10

P = CCn1cc(-n2c(=O)n(C)c3cnc4ccc(-c5ccc(OCCOC)c(OC)c5)cc4c32)c(C)n1 [Example 30.2]
Q = CCOc1cc(-c2ccc3ncc4c(c3c2)n(-c2cn(C)nc2C)c(=O)n4C)cnc1CC [Example 187]
Field: entry with larger pIC50 (options P / Q ). Pick one; state its label.
Q
(Q: 8.22, P: 7.36)

A = CNc1ncc(-c2ccc3ncc4c(c3c2)n(-c2c(C)nn(C)c2C)c(=O)n4C)cc1Cl [Example 146.4]
B = Cc1cc(-n2c(=O)n(C)c3cnc4ccc(-c5ccc(C(F)(F)F)nc5)cc4c32)n(C)n1 [Example 8.2]
# min-compare on pIC50 between A and B Pick one; state its label.
B
(B: 6.72, A: 7.15)

====

Experimental details: Solubility at pH 6.8
Type: physicochemical
Condition description: pH 6.8, aqueous buffer, thermodynamic from solid; read-out: solubility
Endpoint: solubility (µg/mL)

1 = CCn1cc(-n2c(=O)n(C)c3cnc4ccc(-c5ccc(NC)nc5)cc4c32)c(C)n1 [Example 118.4]
2 = Cc1nn(C)cc1-n1c(=O)n(C)c2cnc3ccc(-c4cnc(F)c(N)c4)cc3c21 [Example 149.2]
3 = CNc1cc(-c2ccc3ncc4c(c3c2)n(-c2cn(C)nc2Cl)c(=O)n4C)cnc1COC [Example 160.1]
4 = CCNc1cncc(-c2ccc3ncc4c(c3c2)n(-c2cn(C)nc2C)c(=O)n4C)c1 [Example 122]
5 = CNc1ncc(-c2ccc3ncc4c(c3c2)n(-c2cc(C)nn2C)c(=O)n4C)cc1Cl [Example 146.5]
Given 5 compounds, produce a descending ranking by solubility. To answer, write out the labels according to the requested order.
1, 3, 2, 4, 5
(1: 70 µg/mL, 3: 32 µg/mL, 2: 21 µg/mL, 4: 5 µg/mL, 5: 3 µg/mL)

====

Tested on: PKB Ser473 phosphorylation in Rat1-myr-HA-p110 alpha cells
Experimental details: Reverse protein array assay, PKB Ser473 phosphorylation in Rat1-myr-p110 alpha cells
Assay type: cell-based
Condition description: 0.5 h, pAkt Ser473, 30 minutes compound incubation, read-out: p-PKB IC50
pIC50: −log10 of the molar value.
Endpoint: pIC50

The following compounds have reported results that may help.
CCNc1ncc(-c2ccc3ncc4c(c3c2)n(-c2cn(C)nc2C)c(=O)n4C)cc1C(F)(F)F [Example 145.2] :: 8.05
Cc1nn(C)cc1-n1c(=O)[nH]c2cnc3ccc(-c4cnc(N(C)C)nc4)cc3c21 [Example 207] :: 7.19
Cc1cncc(-c2ccc3ncc4c(c3c2)n(-c2cn(C)nc2C)c(=O)n4C)c1 [Example 24] :: 7.11
CCNc1ncc(-c2ccc3ncc4c(c3c2)n(-c2c(C)nn(C)c2C)c(=O)n4C)cc1COC [Example 206.2] :: 6.90
Cc1nn(CC(=O)N(C)C)cc1-n1c(=O)n(C)c2cnc3ccc(-c4ccc(-n5cccn5)cc4)cc3c21 [Example 51.2] :: 7.82
COc1cc(-c2ccc3ncc4c(c3c2)n(-c2cn(C)nc2C)c(=O)n4C)cnc1C [Example 184] :: 8.30
COc1ncc(-c2ccc3ncc4c(c3c2)n(-c2cn(C)nc2C)c(=O)n4C)cc1N [Example 127] :: 8.30
CCOc1ncc(-c2ccc3ncc4c(c3c2)n(-c2cn(C)nc2C)c(=O)n4C)cn1 [Example 52] :: 8.22

a = COc1ccc(-c2ccc3ncc4c(c3c2)n(-c2cn(C)nc2C)c(=O)n4C)cn1 [Example 2.5]
b = CCOc1cc(-c2ccc3ncc4c(c3c2)n(-c2cn(C)nc2C)c(=O)n4C)ccn1 [Example 91]
c = Cc1nn(C)cc1-n1c(=O)n(C)c2cnc3ccc(-c4cccc(S(C)(=O)=O)c4)cc3c21 [Example 40]
Could you please sort these 3 entries by pIC50 from high to low? To answer, write out the labels according to the requested order.
a, c, b

I = CNc1ncc(-c2ccc3ncc4c(c3c2)n(-c2cc(C)nn2C)c(=O)n4C)cc1Cl [Example 146.5]
II = Cc1nn(C)cc1-n1c(=O)n(C)c2cnc3ccc(-c4ccnc(N(C)C(C)C)c4)cc3c21 [Example 130]
III = CCOC(C)(C)c1cncc(-c2ccc3ncc4c(c3c2)n(-c2cn(C)nc2C)c(=O)n4C)c1 [Example 240]
IV = CCNc1cc(-c2ccc3ncc4c(c3c2)n(-c2cn(CC)nc2C)c(=O)n4C)cnc1CO [Example 155.2]
V = COc1ccc(-c2ccc3ncc4c(c3c2)n(-c2cnn(C)c2C)c(=O)n4C)cn1 [Example 2.9]
Sort entries by pIC50 from minimum to maximum value. To answer, write out the labels according to the requested order.
II, III, V, I, IV
(II: 6.48, III: 7.14, V: 7.36, I: 7.92, IV: 8.30)
